# Test system: RPMI-8226 leukemia
# measurementNotes: NCI tumour cell line growth inhibition, 48 h
# TGI per record follows

* Cc1ccc(NC(=O)C(=O)C(C#N)c2nc(-c3ccc(-c4ccccc4)cc3)cs2)c(C)c1 (stereo not given) | > 100 µM
* CCOc1ccc(N/C(Cl)=C(Cl)\C(=C(\Nc2ccc(OCC)cc2)n2nnc3ccccc32)[N+](=O)[O-])cc1 | > 30.5 µM

// switching to the query molecule
Request the reported TGI associated with C=C[C@@H]1C[C@]2(C(=O)OC)Cc3nc4ccccc4nc3CC(C(=O)OC)=C2O1
> 100 µM

----------
# TGI per record follows
# Test system: SNB-19 CNS
# measurementNotes: NCI tumour cell line growth inhibition, 48 h

- C=C(C)[C@H]1C=C[C@@H](OC(=O)c2cccnc2)[C@@]23CO[C@@](C)([C@H](OC(=O)c4cccnc4)[C@@]4(OC(C)=O)C[C@H](C)[C@H](OCCC)[C@@H]4[C@H]2OC(C)=O)[C@H]13: > 15 µM
- Cc1cc2c(cc1C)[n+](=O)c(C(=O)C/C(=N/OCCCc1ccccc1)C(=O)Nc1cc(Cl)ccc1Cl)c(C)n2[O-]: > 100 µM

Request the reported TGI associated with O=[N+]([O-])c1ccccc1N/N=C\c1c[nH]c2ccccc12
> 100 µM

Request the reported TGI associated with COC1=CCC=C(C[C@@H]2NCCc3cc(OC)c(OC)cc32)C1
> 100 µM

Request the reported TGI associated with NNC(=O)CNC(=O)c1ccc(Cl)cc1Cl
> 100 µM

----------
# TGI per record follows
# Tested on: XF 498 CNS
# measurementNotes: NCI tumour cell line growth inhibition, 48 h

Worked examples follow.
- CC1SC2=NC3=C(c4ccccc4C3=O)C(c3ccc(Cl)cc3)N2C1=O (stereo not given): > 100 µM
- NNC(=O)CNC(=O)c1ccc(Cl)cc1Cl: > 100 µM
- CCCCCCCCCCCCCC(=O)OCC1OC(n2cc(F)c(=O)[nH]c2=O)C(NC(=O)OCc2ccccc2)C(OC(=O)CCCCCCCCCCCCC)C1O (stereo not given): > 100 µM
- OC1CCOc2ccccc21 (stereo not given): > 100 µM

// switching to the query compound
Request the reported TGI associated with CC(C)(C)OC(=O)NCCc1cccc2c1oc1c(CCC(=O)O)cccc12
> 100 µM

----------
# Test system: OVCAR-3 ovarian
# measurementNotes: NCI tumour cell line growth inhibition, 48 h
valueType: TGI

- CC(=O)c1ccc(OCC(O)CO)cc1 (stereo not drawn): > 100 µM
- COC(=O)C(C(=O)C(=O)Nc1nc(=S)[nH][nH]1)c1csc(-n2nc(-c3ccccc3)cc2-c2ccccc2)n1 (stereo not drawn): > 100 µM
- CC1CC[C@@]2(OC1)OC1CC3C4CCC5C[C@@H](OC6OC(CO)C(OC7OC(CO)C(O)C(OC8OC(CO)C(O)C(OC9OC(CO)C(O)C(O)C9O)C8O)C7OC7OC(CO)C(O)C(O)C7O)C(O)C6O)[C@H](O)C[C@]5(C)C4CC[C@]3(C)C1[C@@H]2C (stereo partly drawn): > 80.5 µM
- O=C1NC(=O)C2(CCCCCC2)N1: > 100 µM
- S=C1CC(c2ccccc2)Sc2ccccc2N1 (stereo not drawn): > 100 µM
- CC(/C(=N\Nc1ccccc1)c1ccc(O)cc1)C1C(=O)Oc2ccccc21 (stereo not drawn): > 100 µM
- CCOc1ccc(N/C(Cl)=C(Cl)\C(=C(\Nc2ccc(OCC)cc2)n2nnc3ccccc32)[N+](=O)[O-])cc1: 20.3 µM

// switching to the query molecule
Request the reported TGI associated with Cc1ccc(S(=O)(=O)N2CCSCCN(S(=O)(=O)c3ccc(C)cc3)CCN(S(=O)(=O)c3ccc(C)cc3)CC2)cc1
> 100 µM
